Biological target: recombinant human baculovirus-expressed cMET (Homo sapiens (Human), UniProt P08581)
Sequence (P08581 25-1390): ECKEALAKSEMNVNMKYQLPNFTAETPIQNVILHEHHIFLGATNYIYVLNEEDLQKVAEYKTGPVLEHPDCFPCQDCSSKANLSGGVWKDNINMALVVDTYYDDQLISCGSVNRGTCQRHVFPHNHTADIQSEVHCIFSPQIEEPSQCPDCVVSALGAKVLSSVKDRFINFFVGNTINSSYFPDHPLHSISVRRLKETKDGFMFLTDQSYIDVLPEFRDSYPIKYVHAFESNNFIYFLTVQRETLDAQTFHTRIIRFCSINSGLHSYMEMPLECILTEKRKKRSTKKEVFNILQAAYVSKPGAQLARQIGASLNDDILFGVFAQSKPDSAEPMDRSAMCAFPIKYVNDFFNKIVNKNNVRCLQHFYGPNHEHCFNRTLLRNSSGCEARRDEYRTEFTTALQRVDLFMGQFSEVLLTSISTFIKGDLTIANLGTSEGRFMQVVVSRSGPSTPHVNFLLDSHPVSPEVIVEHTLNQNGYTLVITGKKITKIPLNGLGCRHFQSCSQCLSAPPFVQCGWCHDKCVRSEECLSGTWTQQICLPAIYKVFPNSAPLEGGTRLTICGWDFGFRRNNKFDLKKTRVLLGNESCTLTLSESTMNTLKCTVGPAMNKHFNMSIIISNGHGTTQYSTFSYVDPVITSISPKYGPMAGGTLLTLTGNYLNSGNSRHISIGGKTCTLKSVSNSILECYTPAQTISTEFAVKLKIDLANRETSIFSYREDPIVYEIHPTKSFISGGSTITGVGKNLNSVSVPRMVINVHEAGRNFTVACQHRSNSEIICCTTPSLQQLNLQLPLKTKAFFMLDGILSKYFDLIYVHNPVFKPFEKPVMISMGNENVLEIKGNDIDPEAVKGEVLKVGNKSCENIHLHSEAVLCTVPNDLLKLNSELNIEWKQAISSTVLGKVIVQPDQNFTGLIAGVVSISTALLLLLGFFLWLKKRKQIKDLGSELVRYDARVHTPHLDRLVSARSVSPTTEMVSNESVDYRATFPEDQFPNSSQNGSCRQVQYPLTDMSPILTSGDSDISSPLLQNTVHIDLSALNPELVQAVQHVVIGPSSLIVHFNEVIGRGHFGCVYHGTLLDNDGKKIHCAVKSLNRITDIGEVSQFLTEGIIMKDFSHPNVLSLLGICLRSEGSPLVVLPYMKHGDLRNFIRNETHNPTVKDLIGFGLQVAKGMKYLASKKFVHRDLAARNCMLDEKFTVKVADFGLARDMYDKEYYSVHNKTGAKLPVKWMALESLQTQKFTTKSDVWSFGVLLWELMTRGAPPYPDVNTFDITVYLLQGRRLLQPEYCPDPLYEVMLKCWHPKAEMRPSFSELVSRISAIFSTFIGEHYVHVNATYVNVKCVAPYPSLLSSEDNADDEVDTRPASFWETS
Assay: C-MET Kinase Assay (HTRF KinEASE)
Assay type: biochemical
Conditions: average of two or more determinations; read-out: c-MET IC50
Quantity name: IC50

CCn1cc(C(=O)Nc2ccc(Sc3ccnc4cc(OC)c(OC)cc34)cc2)c(=O)n(-c2ccc(F)cc2)c1=O; 0.01 to 0.1 µM
COCCCn1cc(C(=O)Nc2ccc(Oc3ccnc4cc(OC)c(OC)cc34)c(F)c2)c(=O)n(-c2ccc(F)cc2)c1=O; 0.01 to 0.1 µM
CCn1cc(C(=O)Nc2ccc(Oc3ccnc4cc(OC)c(OC)cc34)c(C(F)(F)F)c2)c(=O)n(-c2ccc(F)cc2)c1=O; 0.01 to 0.1 µM
COc1cc2nccc(Oc3ccc(NC(=O)c4nn(CCO)c(=O)n(-c5ccc(F)cc5)c4=O)cc3F)c2cc1OC; < 0.01 µM
COc1cc2nccc(Oc3ccc(NC(=O)c4cn(C[C@H](O)CO)c(=O)n(-c5ccc(F)cc5)c4=O)cc3F)c2cc1OC; 0.01 to 0.1 µM

Task: Entry COc1cc2nccc(Oc3ccc(NC(=O)c4nn(C)c(=O)n(-c5ccc(F)cc5)c4=O)cc3F)c2cc1OC has what IC50?
Result: < 0.01 µM

Task: Next compound up: COc1cc2nccc(Oc3ccc(NC(=O)c4cn(CCn5cccn5)c(=O)n(-c5ccc(F)cc5)c4=O)cc3F)c2cc1OC
Result: < 0.01 µM

Task: And then COc1cc2nccc(Oc3ccc(NC(=O)c4nn(C)c(=O)n(CC5CCC5)c4=O)cc3F)c2cc1OC , what is it?
Result: 0.01 to 0.1 µM

---

pIC50 values by entry
Target: recombinant human baculovirus-expressed cMET (Homo sapiens (Human))
Experiment: C-MET Kinase Assay (HTRF KinEASE)
Type: biochemical
Conditions: average of two or more determinations; read-out: c-MET IC50
pIC50: −log10 of the molar value.

C#CCn1c(=O)c(C(=O)Nc2ccc(Oc3ccnc4cc(OC)c(OC)cc34)c(F)c2)nn(C)c1=O [Example 115]; 7.00 to 8.00
CCn1cc(C(=O)Nc2ccc(Oc3ccnc4cc(OC)c(OC)cc34)c(Cl)c2)c(=O)n(-c2ccc(F)cc2)c1=O [Example 152]; 7.00 to 8.00
COc1cc2nccc(Oc3ccc(NC(=O)c4cn(CC=C(F)F)c(=O)n(-c5ccc(F)cc5)c4=O)cc3F)c2cc1OC [Example 14]; > 8.00

Task: Quick one: pIC50 for CCn1cc(C(=O)Nc2ccc(Oc3ccnc4cc(OC)c(OC)cc34)c(F)c2)c(=O)n(-c2ccc(F)cc2)c1=O [Example 1] ?
Result: > 8.00

---

Each entry below lists one item and its recorded pIC50 value.
Molecular target: recombinant human baculovirus-expressed cMET (Homo sapiens (Human), UniProt P08581)
Test: C-MET Kinase Assay (HTRF KinEASE)
Assay type: biochemical
Conditions: average of two or more determinations; read-out: c-MET IC50
pIC50: −log10 of the molar value.

COc1cc2nccc(Oc3ccc(NC(=O)c4cn(C)c(=O)n(-c5ccc(F)cc5)c4=O)cc3F)c2cc1OC; > 8.00

Task: Query for recombinant human baculovirus-expressed cMET (Homo sapiens (Human), UniProt P08581): what pIC50 does the record show for COc1cc2nccc(Oc3ccc(NC(=O)c4nn(C)c(=O)n(CC5CCOCC5)c4=O)cc3F)c2cc1OC ?
Result: 6.00 to 7.00

Task: Proceed to COc1cc2nccc(Oc3ccc(NC(=O)c4cn(CC=C(C)C)c(=O)n(CC=C(C)C)c4=O)cc3F)c2cc1OC
Result: 6.00 to 7.00

---

Target: recombinant human baculovirus-expressed cMET (Homo sapiens (Human), UniProt P08581)
Experiment: C-MET Kinase Assay (HTRF KinEASE)
Assay type: biochemical
Conditions: average of two or more determinations; read-out: c-MET IC50
pIC50: −log10 of the molar value.
Quantity name: pIC50

As a guide, the following entries are already answered.
COc1cc2nccc(Oc3ccc(NC(=O)c4cn(CCN5CCCC5)c(=O)n(-c5ccc(F)cc5)c4=O)cc3F)c2cc1OC; 7.00 to 8.00
CCn1cc(C(=O)Nc2ccc(Oc3ccnc4cc(OC)c(OC)cc34)cc2)c(=O)n(-c2ccc(F)cc2)c1=O; > 8.00
COc1cc2nccc(Oc3ccc(NC(=O)c4nn(CC5CC5)c(=O)n(-c5ccc(F)cc5)c4=O)cc3F)c2cc1OC; 7.00 to 8.00
COc1cc2nccc(Oc3ccc(NC(=O)c4cn(C(C)C)c(=O)n(-c5ccc(F)cc5)c4=O)c(C)c3C)c2cc1OC; 6.00 to 7.00

Pending compound:
Task: Returns the measured pIC50 for the input compound. Input: COc1cc2nccc(Oc3ccc(NC(=O)c4cn(CCc5ccc(F)cc5)c(=O)n(-c5ccc(F)cc5)c4=O)cc3F)c2cc1OC
Result: 7.00 to 8.00

---

Entries annotated with measured pIC50
Biological target: recombinant human baculovirus-expressed cMET (Homo sapiens (Human), UniProt P08581)
Test: C-MET Kinase Assay (HTRF KinEASE)
Type: biochemical
Details: average of two or more determinations; read-out: c-MET IC50
pIC50: −log10 of the molar value.

COc1cc2nccc(Oc3ccc(NC(=O)c4cn(CC(=O)N(C)C)c(=O)n(-c5ccc(F)cc5)c4=O)cc3F)c2cc1OC [Example 83]; 7.00 to 8.00
C#CCn1cc(C(=O)Nc2ccc(Oc3ccnc4cc(OC)c(OC)cc34)c(F)c2)c(=O)n(CC#C)c1=O [Example 98]; 7.00 to 8.00
COc1cc(Oc2ccnc3cc(OC)c(OC)cc23)ccc1NC(=O)c1nn(C(C)C)c(=O)n(-c2ccc(F)cc2)c1=O [Example 166]; 6.00 to 7.00
CCn1c(=O)c(C(=O)Nc2ccc(Oc3ccnc4cc(OC)c(OC)cc34)c(F)c2)nn(C)c1=O [Example 123]; 6.00 to 7.00
COc1cc2nccc(Oc3ccc(NC(=O)c4cn(CCC5OCCO5)c(=O)n(-c5ccc(F)cc5)c4=O)cc3F)c2cc1OC [Example 65]; 7.00 to 8.00

Task: Fill blank: measured pIC50 of the molecule CCn1nc(C(=O)Nc2ccc(Oc3ccnc4cc(OC)ccc34)c(F)c2)c(=O)n(-c2ccc(F)cc2)c1=O [Example 171] is ____.
Result: > 8.00

Task: Thanks! And CCn1cc(C(=O)Nc2ccc(Oc3ccnc4cc(OC)c(OC)cc34)c(F)c2)c(=O)n(-c2ccccc2)c1=O [Example 100] ?
Result: 7.00 to 8.00

Task: // same read-out, input: COc1cc2nccc(Oc3ccc(NC(=O)c4nn(C(C)C)c(=O)n(-c5ccc(F)cc5)c4=O)cc3F)c2cc1OC [Example 103]
Result: 7.00 to 8.00

Task: Try this molecule next: COc1ccc2c(Oc3ccc(NC(=O)c4nn(C(C)C)c(=O)n(-c5ccc(F)cc5)c4=O)cc3F)ccnc2c1 [Example 111]
Result: 7.00 to 8.00

Task: Now this one: COc1cc2nccc(Oc3ccc(NC(=O)c4nn(C)c(=O)n(CC(C)C)c4=O)cc3F)c2cc1OC [Example 127]
Result: 7.00 to 8.00

Task: Would you kindly repeat that for COc1cc2nccc(Oc3ccc(NC(=O)c4cn(CCc5ccccc5)c(=O)n(-c5ccc(F)cc5)c4=O)cc3F)c2cc1OC [Example 64] ?
Result: 7.00 to 8.00

Task: Can you check COc1cc2nccc(Oc3ccc(NC(=O)c4cn(C(C(C)=O)C(=O)N(C)C)c(=O)n(-c5ccc(F)cc5)c4=O)cc3F)c2cc1OC (stereo not drawn) [Example 84] next?
Result: 7.00 to 8.00

Task: Queued: CCn1cc(C(=O)Nc2ccc(Oc3ccnc4cc(OCc5ccccc5)c(OC)cc34)c(F)c2)c(=O)n(-c2ccc(F)cc2)c1=O [Example 40]
Result: 7.00 to 8.00

Task: Same question for COCCn1cc(C(=O)Nc2ccc(Oc3ccnc4cc(OC)c(OC)cc34)c(F)c2)c(=O)n(-c2ccc(F)cc2)c1=O [Example 3] please.
Result: 7.00 to 8.00

Task: Please give the result for CCn1cc(C(=O)Nc2ccc(Oc3ccnc4cc(OC)c(OC)cc34)c(F)c2F)c(=O)n(-c2ccc(F)cc2)c1=O [Example 147] too.
Result: > 8.00

Task: Now the same for COc1cc2nccc(Oc3ccc(NC(=O)c4cn(CCF)c(=O)n(-c5ccc(F)cc5)c4=O)cc3F)c2cc1OC [Example 69]
Result: > 8.00

Task: What about C#CCn1cc(C(=O)Nc2ccc(Oc3ccnc4cc(OC)c(OC)cc34)c(F)c2)c(=O)n(-c2ccc(F)cc2)c1=O [Example 61] ?
Result: > 8.00

---

The following compounds are shown together with reported pIC50 values.
Molecular target: recombinant human baculovirus-expressed cMET (Homo sapiens (Human))
Assay: C-MET Kinase Assay (HTRF KinEASE)
Format: biochemical
Details: average of two or more determinations; read-out: c-MET IC50
pIC50: −log10 of the molar value.

COc1cc2nccc(Oc3ccc(NC(=O)c4c[nH]c(=O)n(-c5ccc(F)cc5)c4=O)cc3)c2cc1OC [Example 24]; > 8.00
COc1cc2nccc(Oc3ccc(NC(=O)c4cn(CCCO)c(=O)n(-c5ccc(F)cc5)c4=O)cc3)c2cc1OC [Example 52]; 7.00 to 8.00
COc1cc2nccc(C(O)c3ccc(NC(=O)c4cn(C)c(=O)n(-c5ccc(F)cc5)c4=O)cc3F)c2cc1OC (stereo not drawn) [Example 57]; 6.00 to 7.00
CCn1nc(C(=O)Nc2ccc(Oc3ccnc4cc(OC)c(OC)cc34)cc2OC)c(=O)n(-c2ccc(F)cc2)c1=O [Example 170]; 7.00 to 8.00
COc1cc2nccc(Oc3ccc(NC(=O)c4cn(C(C)C)c(=O)n(-c5ccc(F)cc5)c4=O)cc3)c2cc1C#N [Example 56]; 7.00 to 8.00
COc1cc(Oc2ccnc3cc(OC)c(OC)cc23)ccc1NC(=O)c1cn(C(C)C)c(=O)n(-c2ccc(F)cc2)c1=O [Example 145]; 7.00 to 8.00

Task: Using the record for COc1cc2nccc(Oc3ccc(NC(=O)c4cn(CC(C)C)c(=O)n(-c5ccc(F)cc5)c4=O)cc3F)c2cc1OC [Example 8] , report its pIC50.
Result: 7.00 to 8.00

Task: What do you have for COc1cc2nccc(Oc3ccc(NC(=O)c4cn(CCc5ccccc5F)c(=O)n(-c5ccc(F)cc5)c4=O)cc3F)c2cc1OC [Example 78] ?
Result: 7.00 to 8.00

Task: For CCn1cc(C(=O)Nc2ccc(Oc3ccnc4cc(OC)c(OC)cc34)c(F)c2)c(=O)n(CC)c1=O [Example 93] then?
Result: 7.00 to 8.00

Task: Moving on to the next compound: COc1cc2nccc(Oc3ccc(NC(=O)c4cn(C(C)C)c(=O)n(-c5ccc(F)cc5)c4=O)cc3C3CC3)c2cc1OC [Example 60]
Result: 6.00 to 7.00

Task: One more compound: COc1cc2nccc(Oc3ccc(NC(=O)c4cn(CC(=O)N5CCCC5)c(=O)n(-c5ccc(F)cc5)c4=O)cc3F)c2cc1OC [Example 82]
Result: 7.00 to 8.00

Task: Let us now turn to COc1cc2nccc(Oc3ccc(NC(=O)c4nn(C)c(=O)n(CC(C)(C)C)c4=O)cc3F)c2cc1OC [Example 129]
Result: 7.00 to 8.00

Task: Now give it for CCCn1cc(C(=O)Nc2ccc(C(=O)c3ccnc4cc(OC)c(OC)cc34)c(F)c2)c(=O)n(-c2ccc(F)cc2)c1=O [Example 102] too.
Result: > 8.00

Task: # iterate: COc1cc2nccc(Oc3ccc(NC(=O)c4nn(C)c(=O)n(CC5CC5)c4=O)cc3F)c2cc1OC [Example 125]
Result: 7.00 to 8.00

Task: Try the compound COc1cc2nccc(Oc3ccc(NC(=O)c4cn(CCN5CCOCC5)c(=O)n(-c5ccc(F)cc5)c4=O)cc3F)c2cc1OC [Example 16]
Result: > 8.00

Task: Now try COc1cc2nccc(Oc3ccc(NC(=O)c4cn(CC(=O)O)c(=O)n(-c5ccc(F)cc5)c4=O)cc3F)c2cc1OC [Example 71] .
Result: > 8.00

Task: Repeat with COc1cc2nccc(Oc3ccc(NC(=O)c4cn(CCCO)c(=O)n(-c5ccc(F)cc5)c4=O)c(F)c3)c2cc1OC [Example 51]
Result: > 8.00

Task: And COc1cc2nccc(Oc3ccc(NC(=O)c4cn(C5CCOCC5)c(=O)n(-c5ccc(F)cc5)c4=O)cc3F)c2cc1OC [Example 30] ?
Result: 7.00 to 8.00

Task: Moving on to the next compound: CCn1cc(C(=O)N(C)c2ccc(Oc3ccnc4cc(OC)c(OC)cc34)c(F)c2)c(=O)n(-c2ccc(F)cc2)c1=O [Example 48]
Result: 6.00 to 7.00
